# Tested on: SW-620
# Experiment Description: Growth inhibition of human SW620 cells assessed as cell growth at 100 uM incubated for 48 hrs by sulforhodamine B assay relative to control
# Assay type: functional
# Test Conditions: SW-620, 48 h, read-out: Activity
Recorded Metric: growth at 100 µM (%)
Numbers only, in %.

# Structure Smiles, Result
rows = [
    ("COc1cc(Cl)cc(-c2nn(-c3cccc(NC(=O)Nc4cccc(C(F)(F)F)c4)c3)cc2-c2ccncc2)c1", -11),
    ("COc1cc(Cl)cc(-c2nn(-c3cccc(NC(=O)c4cccc(C(F)(F)F)c4)c3)cc2-c2ccncc2)c1", 57),
    ("COc1cc(Cl)cc(-c2nn(-c3cccc(NC(=O)c4ccc(N5CCOCC5)c(C(F)(F)F)c4)c3)cc2-c2ccncc2)c1", 22),
]

// below: growth at 100 µM requested for another molecule
**Query** Quick check: growth at 100 µM of "O=C(Nc1cccc(-n2cc(-c3ccncc3)c(-c3cc(O)cc(Cl)c3)n2)c1)Nc1ccc(Cl)c(Cl)c1" ?
**Result** -36

###

# Tested on: MDA-MB-468
# Experiment Description: Growth inhibition of human MDA-MB-468 cells assessed as cell growth at 0.01 uM incubated for 48 hrs by sulforhodamine B assay relative to control
# Format: functional
# Test Conditions: MDA-MB-468, 48 h, read-out: Activity
Recorded Metric: growth at 0.01 µM (%)
One number for each entry, in %.

Reference set, count: 4
# Structure Smiles, Result
rows = [
    ("COc1cc(Cl)cc(-c2nn(-c3cccc(NC(=O)Nc4cccc(C(F)(F)F)c4)c3)cc2-c2ccncc2)c1", 94),
    ("O=C(Nc1cccc(-n2cc(-c3ccncc3)c(-c3cc(O)cc(Cl)c3)n2)c1)Nc1ccc(Cl)c(Cl)c1", 92),
    ("COc1cc(Cl)cc(-c2nn(-c3cccc(NC(=O)c4ccc(N5CCOCC5)c(C(F)(F)F)c4)c3)cc2-c2ccncc2)c1", 94),
    ("COc1cc(Cl)cc(-c2nn(-c3cccc(NC(=O)Nc4ccc(Cl)c(C(F)(F)F)c4)c3)cc2-c2ccncc2)c1", 92),
]

// switching to the query compound
**Query** Reported growth at 0.01 µM for MDA-MB-468, given "O=C(Nc1cccc(-n2cc(-c3ccncc3)c(-c3cc(O)cc(Cl)c3)n2)c1)Nc1ccc(Cl)c(C(F)(F)F)c1" ?
**Result** 93

###

# System: OVCAR-4
# Experiment Description: Growth inhibition of human OVCAR4 cells assessed as cell growth at 0.1 uM incubated for 48 hrs by sulforhodamine B assay relative to control
# Type: functional
# Test Conditions: OVCAR-4, 48 h, read-out: Activity
Task for the reader: assign each of the following compounds its reported growth at 0.1 µM.
Numbers only, in %.

# Structure Smiles, growth at 0.1 µM (%)
data = [
    ("O=C(Nc1cccc(-n2cc(-c3ccncc3)c(-c3cc(O)cc(Cl)c3)n2)c1)Nc1ccc(Cl)c(Cl)c1", 95),
]

Would you mind giving growth at 0.1 µM for every compound in the list below?
1. O=C(Nc1cccc(-n2cc(-c3ccncc3)c(-c3cc(O)cc(Cl)c3)n2)c1)Nc1ccc(Cl)c(C(F)(F)F)c1
2. COc1cc(Cl)cc(-c2nn(-c3cccc(NC(=O)c4ccc(N5CCOCC5)c(C(F)(F)F)c4)c3)cc2-c2ccncc2)c1
3. COc1cc(Cl)cc(-c2nn(-c3cccc(NC(=O)Nc4cccc(C(F)(F)F)c4)c3)cc2-c2ccncc2)c1
4. COc1cc(Cl)cc(-c2nn(-c3cccc(NC(=O)Nc4ccc(Cl)c(Cl)c4)c3)cc2-c2ccncc2)c1

**Result**
1. 105
2. 103
3. 98
4. 95
